Kindly supply the reported relative binding affinity values for the records listed here.
# target-entity: T1, human CD81 mutant A164T (human, UniProt P60033 1-236, limits assumed)
# T1 construct: as m30; not shown: C-terminal V5 and 6xHis tags
# T1 sequence: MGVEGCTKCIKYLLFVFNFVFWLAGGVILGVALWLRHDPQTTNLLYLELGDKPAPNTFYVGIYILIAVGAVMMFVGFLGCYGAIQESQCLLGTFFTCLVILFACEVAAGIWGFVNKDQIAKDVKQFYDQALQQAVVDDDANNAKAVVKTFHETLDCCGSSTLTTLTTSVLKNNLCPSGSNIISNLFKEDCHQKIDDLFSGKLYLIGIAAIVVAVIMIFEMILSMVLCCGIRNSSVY
# experimental-protocol: ELISA

State the recorded relative binding affinity for every item in the following list.
1. 002-A07 S115A (antibody, human IgG4 S228P, lambda, V domains shown, IgG4 S228P; glycosylation site mutant of 002-A07 VL) VH: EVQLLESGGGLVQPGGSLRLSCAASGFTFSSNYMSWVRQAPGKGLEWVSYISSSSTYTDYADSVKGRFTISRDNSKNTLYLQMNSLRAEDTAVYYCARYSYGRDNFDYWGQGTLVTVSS VL: QSVLTQPPSASGTPGQRVTISCTGSTSNIGAGYDTHWYQQLPGTAPKLLIYGNSNRPSGVPDRFSGSKSGTSASLAISGLRSEDEADYYCQSYDTNLAVWVFGGGTKLTVLG
2. 002-F05 (antibody, human IgG4 S228P, lambda, V domains shown, IgG4 S228P) VH: EVQLLESGGGLVQPGGSLRLSCAASGFTFSSNYMSWVRQAPGKGLEWVSYISSSSTYTDYADSVKGRFTISRDNSKNTLYLQMNSLRAEDTAVYYCARYSYGRDDFDYWGQGTLVTVSS VL: QSVLTQPASASGTPGQRVTISCTGSTSNIGAGYDTHWYQQLPGTAPKLLIYGNSNRPSGVPDRFSGSKSGTSASLAISGLRSEDEADYYCQSYDTNLNVWVFGGGTKLTVLG

Data returned:
1. < 20%
2. < 20%

The measurements presented in this section are drawn from patent US20150139990A1.
